Settings: in ethylene glycol, 303.15 K
quantity_measured: solubility (mole fraction)
Returns: the value as a bare number; no unit string appended.

Prompt: Please look at this molecule and report its solubility (mole fraction): O=C(OCCO)c1ccc(C(=O)OCCO)cc1
Completion: 0.000859

====

Settings: in ethanol, 313.15 K
quantity_measured: solubility (mole fraction)
Returns: the value as a bare number; no unit string appended.

Prompt: Please look at this compound and report its solubility (mole fraction): O=C(OCCO)c1ccc(C(=O)OCCO)cc1
Completion: 0.00315

====

Details: in methanol, 303.15 K
quantity_measured: solubility (mole fraction)
Returns: the value as a bare number; no unit string appended.

Prompt: Please look at this compound and report its solubility (mole fraction): O=C(OCCO)c1ccc(C(=O)OCCO)cc1
Completion: 0.00238

====

Details: in water, 328.15 K
quantity_measured: solubility (mole fraction)
Returns: the value as a bare number; no unit string appended.

Prompt: Please look at this molecule and report its solubility (mole fraction): O=C(OCCO)c1ccc(C(=O)OCCO)cc1
Completion: 0.000221

====

Conditions: in ethanol, 283.15 K
quantity_measured: solubility (mole fraction)
Returns: the value as a bare number; no unit string appended.

Prompt: Please look at this compound and report its solubility (mole fraction): O=C(OCCO)c1ccc(C(=O)OCCO)cc1
Completion: 0.000577

====

Details: in water, 303.15 K
quantity_measured: solubility (mole fraction)
Returns: the value as a bare number; no unit string appended.

Prompt: Please look at this compound and report its solubility (mole fraction): O=C(OCCO)c1ccc(C(=O)OCCO)cc1
Completion: 5.8e-05

====

Conditions: in methanol, 323.15 K
quantity_measured: solubility (mole fraction)

Prompt: Please look at this compound and report its solubility (mole fraction): O=C(OCCO)c1ccc(C(=O)OCCO)cc1
Completion: 0.00656

====

Conditions: in methanol, 313.15 K
quantity_measured: solubility (mole fraction)
Returns: the value as a bare number; no unit string appended.

Prompt: Please look at this molecule and report its solubility (mole fraction): O=C(OCCO)c1ccc(C(=O)OCCO)cc1
Completion: 0.00404

====

Details: in ethanol, 303.15 K
quantity_measured: solubility (mole fraction)
Returns: the value as a bare number; no unit string appended.

Prompt: Please look at this molecule and report its solubility (mole fraction): O=C(OCCO)c1ccc(C(=O)OCCO)cc1
Completion: 0.00169

====

Conditions: in methanol, 293.15 K
quantity_measured: solubility (mole fraction)
Returns: the value as a bare number; no unit string appended.

Prompt: Please look at this compound and report its solubility (mole fraction): O=C(OCCO)c1ccc(C(=O)OCCO)cc1
Completion: 0.00142

====

Conditions: in ethylene glycol, 328.15 K
quantity_measured: solubility (mole fraction)
Returns: the value as a bare number; no unit string appended.

Prompt: Please look at this compound and report its solubility (mole fraction): O=C(OCCO)c1ccc(C(=O)OCCO)cc1
Completion: 0.00499

====

Details: in ethanol, 318.15 K
quantity_measured: solubility (mole fraction)
Returns: the value as a bare number; no unit string appended.

Prompt: Please look at this molecule and report its solubility (mole fraction): O=C(OCCO)c1ccc(C(=O)OCCO)cc1
Completion: 0.00395

====

Conditions: in ethanol, 298.15 K
quantity_measured: solubility (mole fraction)
Returns: the value as a bare number; no unit string appended.

Prompt: Please look at this compound and report its solubility (mole fraction): O=C(OCCO)c1ccc(C(=O)OCCO)cc1
Completion: 0.00141

Cited source for all entries: BigSolDB 2.1
